Biological target: Muscarinic acetylcholine receptor M5 (Homo sapiens)
Sequence (whole entry): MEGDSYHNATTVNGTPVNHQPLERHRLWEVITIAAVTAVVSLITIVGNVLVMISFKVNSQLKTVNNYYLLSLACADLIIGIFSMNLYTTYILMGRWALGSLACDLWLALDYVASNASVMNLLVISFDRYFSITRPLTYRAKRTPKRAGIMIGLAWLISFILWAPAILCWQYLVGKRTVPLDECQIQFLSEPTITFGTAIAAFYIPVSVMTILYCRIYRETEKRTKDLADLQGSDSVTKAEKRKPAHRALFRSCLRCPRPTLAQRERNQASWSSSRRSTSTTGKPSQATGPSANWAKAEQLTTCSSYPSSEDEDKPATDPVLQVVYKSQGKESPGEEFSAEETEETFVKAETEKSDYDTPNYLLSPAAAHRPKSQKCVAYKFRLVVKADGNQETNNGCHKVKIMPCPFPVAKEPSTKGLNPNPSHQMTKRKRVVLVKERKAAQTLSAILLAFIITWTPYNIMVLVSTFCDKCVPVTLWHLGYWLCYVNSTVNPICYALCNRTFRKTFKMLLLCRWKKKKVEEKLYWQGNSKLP
Conditions: Compound concentration 10 µM
Description: PDSP Primary Binding target: CHRM5 - Compounds are tested at 10 uM concentration, plate are incubated at room temperature in the dark for 90 minutes. Reaction are stopped by vacuum filtration onto 0.3% polyethyleneimine soaked filter mats using Filtermate harvester. Scintilation cocktail is then melted onto microwave-dried filters on a hot plate and the radio activity is counted in Microbia counter.
Give measured inhibition for each item. Keep answers brief.

The following compounds each have a reported value; give each one's inhibition.
1. O=c1ccn([C@@H]2O[C@H](COP(=O)(O)OP(=O)(O)O)[C@@H](O)[C@H]2O)c(=O)[nH]1
2. COc1ccc(Br)cc1S(=O)(=O)NC(=O)/C=C/c1ccccc1Cc1ccc2ccccc2c1
3. N#Cc1ccc2[nH]cc(CCCCN3CCN(c4ccc5oc(C(N)=O)cc5c4)CC3)c2c1

1: -9.39%; 2: 16.9%; 3: 30.6%

----------
Target: Alpha-2C adrenergic receptor (Homo sapiens) (UniProt P18825)
Sequence (P18825 whole entry): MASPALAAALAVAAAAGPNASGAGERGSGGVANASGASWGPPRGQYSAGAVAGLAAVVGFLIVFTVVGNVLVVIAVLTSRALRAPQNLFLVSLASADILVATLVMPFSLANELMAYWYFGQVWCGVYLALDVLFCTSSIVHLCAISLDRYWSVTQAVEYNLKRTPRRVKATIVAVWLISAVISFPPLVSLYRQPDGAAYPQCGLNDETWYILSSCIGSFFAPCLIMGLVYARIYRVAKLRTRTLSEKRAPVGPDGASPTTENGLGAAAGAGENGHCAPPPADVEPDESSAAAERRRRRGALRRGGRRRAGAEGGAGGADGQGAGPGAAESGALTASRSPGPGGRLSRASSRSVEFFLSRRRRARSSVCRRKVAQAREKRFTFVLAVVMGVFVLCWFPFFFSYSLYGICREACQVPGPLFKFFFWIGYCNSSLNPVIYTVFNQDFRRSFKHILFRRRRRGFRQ
Settings: Compound concentration 10 µM
Description: PDSP Primary Binding target: ADRA2C - Compounds are tested at 10 uM concentration, plate are incubated at room temperature in the dark for 90 minutes. Reaction are stopped by vacuum filtration onto 0.3% polyethyleneimine soaked filter mats using Filtermate harvester. Scintilation cocktail is then melted onto microwave-dried filters on a hot plate and the radio activity is counted in Microbia counter.
value-kind: inhibition (%)
Numbers only, in %.

Example compounds with recorded inhibition:
1. COc1cc2c(CCNC(C)=O)c[nH]c2cc1Cl; -1.89
2. Cc1ccccc1C(=O)Nc1ccc(C(=O)N2CCCC(O)c3cc(Cl)ccc32)c(C)c1 (centres undefined); 9.34
3. CC1CCN(CC[C@H]2CCCN2S(=O)(=O)c2cccc(O)c2)CC1; 51.5
4. O=C(O)CC1CCC2(CC1)CCN(c1cc(OC(F)(F)F)ccc1Cl)CC2; 0.13
5. O=C(O)c1cc(-c2ccc(C3CCNCC3)cc2)c2ccc(-c3ccc(C(F)(F)F)cc3)cc2c1; 27.2

The following compounds each have a reported value; give each one's inhibition.
1. O=c1ccc2ccc(OCCCCN3CCN(c4cccc5sccc45)CC3)cc2[nH]1
2. O=C(O)Cn1c(C(=O)Nc2nc(-c3ccccc3Cl)cs2)cc2ccccc21

1. 104
2. 0.91

The following compounds each have a reported value; give each one's inhibition.
1. COc1cccc(-c2c(C)n(Cc3c(F)cccc3C(F)(F)F)c(=O)n(C[C@H](NCCCC(=O)O)c3ccccc3)c2=O)c1F
2. Cc1csc2c(N[C@@H](C)CN3CCN(S(=O)(=O)c4ccc(Cl)c(Cl)c4)CC3)ncnc12
3. CCCCCNC(=N)N/N=C/c1c[nH]c2ccc(OC)cc12
4. C[C@@H](N)Cc1c[nH]cn1
5. N#Cc1ccc2[nH]cc(CCCCN3CCN(c4ccc5oc(C(N)=O)cc5c4)CC3)c2c1
6. O=S1(=O)c2cccc3cccc(c23)N1CCCN1CCN(c2ccc(F)cc2)CC1

1. -3.99
2. 14.6
3. 94.1
4. 10.9
5. 76.3
6. 98.7

Quick one: inhibition of O=C(c1cc2c(cc1F)OC(c1ccc(F)cc1)(c1ccc(Cl)cc1Cl)O2)N1CCOCC1 (centres undefined) ?
38.9

----------
Biological target: Alpha-2A adrenergic receptor (Homo sapiens)
Settings: Compound concentration 10 µM
Description: PDSP Primary Binding target: ADRA2A - Compounds are tested at 10 uM concentration, plate are incubated at room temperature in the dark for 90 minutes. Reaction are stopped by vacuum filtration onto 0.3% polyethyleneimine soaked filter mats using Filtermate harvester. Scintilation cocktail is then melted onto microwave-dried filters on a hot plate and the radio activity is counted in Microbia counter.
Give measured inhibition for each item. Keep answers brief.
Answers are plain numbers, in %.

Example compounds with recorded inhibition:
1. CC[C@@H]1CN2C(=O)N(C)c3nc(-c4ccccc4)[nH]c3C2=N1; -7.63
2. O=c1ccn([C@@H]2O[C@H](COP(=O)(O)OP(=O)(O)OP(=O)(O)O)[C@@H](O)[C@H]2O)c(=O)[nH]1; 11.6
3. CCCCCNC(=N)N/N=C/c1c[nH]c2ccc(OC)cc12; 77.7

The following compounds each have a reported value; give each one's inhibition.
1. CCc1cc2c(c(CC)n1)CCC(=O)N2Cc1ccc(-c2ccccc2-c2nnn[nH]2)cc1
2. COc1ccc2[nH]cc(CCNC(C)=O)c2c1
3. CSc1ccc(C(=O)N[C@@H]2CCCC[C@@H]2NC(=O)CNC(=O)c2cc(C(F)(F)F)ccc2NC(=O)NC(C)C)cc1
4. Clc1cccc(Cl)c1NC1=NCCN1
5. CC(C)(C)NC[C@H](O)COc1nsnc1N1CCOCC1

[-6.38, 8.96, -2.26, 103, 11.8]

The following compounds each have a reported value; give each one's inhibition.
1. COc1ccc2cc(S(=O)(=O)N[C@H](CC(=O)N[C@H](Cc3ccc(CN4[C@H](C)CCC[C@@H]4C)cc3)C(=O)N(C)C(C)C)c3ccc4c(c3)OCO4)ccc2c1
2. O=C1O[C@]2(CC[C@H](C(=O)Nc3ccn(-c4ccccc4F)n3)CC2)c2cnccc21
3. CCCCc1nc(Cl)c(CO)n1Cc1ccc(-c2ccccc2-c2nnn[nH]2)cc1
4. O=C(O)Cn1c(C(=O)Nc2nc(-c3ccccc3Cl)cs2)cc2ccccc21
5. CS(=O)(=O)NC[C@H]1CC[C@H](Nc2nc3c(s2)CCSc2ccccc2-3)CC1

[39.4, -9.69, 6.2, 8.83, 0.86]

----------
Target: D(3) dopamine receptor (Homo sapiens) (UniProt P35462)
Sequence (P35462 whole entry): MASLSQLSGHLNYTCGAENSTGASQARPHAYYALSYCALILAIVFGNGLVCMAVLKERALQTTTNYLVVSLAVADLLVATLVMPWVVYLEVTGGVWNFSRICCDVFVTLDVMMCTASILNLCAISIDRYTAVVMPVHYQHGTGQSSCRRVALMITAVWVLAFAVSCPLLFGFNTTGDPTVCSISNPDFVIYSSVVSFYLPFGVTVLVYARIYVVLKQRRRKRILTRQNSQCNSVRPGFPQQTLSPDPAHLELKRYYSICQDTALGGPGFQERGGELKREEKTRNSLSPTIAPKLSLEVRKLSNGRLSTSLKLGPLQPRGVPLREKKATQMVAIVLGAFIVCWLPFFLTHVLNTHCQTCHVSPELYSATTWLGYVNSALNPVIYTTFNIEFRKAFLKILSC
Conditions: Compound concentration 10 µM; call rule not given here
Respond only with the outcome that fits, drawn from active, inactive

1. COc1ccc(CNC(=O)c2cc(-c3cncc(Cl)c3)cnc2-c2ccccn2)nc1OC; inactive

Field: outcome | Entry: CC[C@@H]1CN2C(=O)N(C)c3nc(-c4ccccc4)[nH]c3C2=N1
inactive

Check COc1ccc(NS(=O)(=O)c2sc3ccc(Cl)cc3c2C)cc1N1CCNCC1 too.
active

----------
Biological target: 5-hydroxytryptamine receptor 1E (Homo sapiens) (UniProt P28566)
Sequence (P28566 whole entry): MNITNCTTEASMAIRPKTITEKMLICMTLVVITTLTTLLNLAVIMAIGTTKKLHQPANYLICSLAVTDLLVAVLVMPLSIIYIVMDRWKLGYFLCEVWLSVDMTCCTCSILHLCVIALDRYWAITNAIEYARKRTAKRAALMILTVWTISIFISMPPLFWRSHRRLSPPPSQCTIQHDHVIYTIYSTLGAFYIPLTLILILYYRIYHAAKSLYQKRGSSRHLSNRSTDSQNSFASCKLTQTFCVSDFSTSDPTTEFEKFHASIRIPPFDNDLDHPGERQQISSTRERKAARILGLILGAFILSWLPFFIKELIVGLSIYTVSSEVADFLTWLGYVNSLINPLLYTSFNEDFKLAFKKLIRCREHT
Settings: Compound concentration 10 µM; call rule not given here
Respond only with the outcome that fits, drawn from True (active), False (inactive)

1) CN(C)C(=O)C(CCN1CCC(O)(c2ccc(Cl)cc2)CC1)(c1ccccc1)c1ccccc1; False
2) CNC[C@H](O)c1ccc(O)c(O)c1; False
3) CN1CCCC(n2nc(Cc3ccc(Cl)cc3)c3ccccc3c2=O)CC1 (stereo not drawn); True

Field: outcome | Entry: C[C@H](NC[C@H](O)CP(=O)(O)CC1CCCCC1)c1ccc(Cl)c(Cl)c1
False

Check CCC(=O)NCC[C@@H]1CCc2ccc3c(c21)CCO3 too.
False

Check CCc1ccc(OCc2ccccc2C(=O)Nc2ccc3nc(C)cc(N)c3c2)cc1 too.
False

Check CC(C)NCC(O)COc1ccc(CCOCC2CC2)cc1 (stereo not drawn) too.
False

Check O=c1ccn([C@@H]2O[C@H](COP(=O)(O)OP(=O)(O)OP(=O)(O)O)[C@@H](O)[C@H]2O)c(=O)[nH]1 too.
False

Check O=C1N/C(=N/c2ccccc2F)S/C1=C\c1ccc(C(=O)O)cc1 too.
False

----------
Molecular target: 5-hydroxytryptamine receptor 1A (Homo sapiens) (UniProt P08908)
Sequence (P08908 whole entry): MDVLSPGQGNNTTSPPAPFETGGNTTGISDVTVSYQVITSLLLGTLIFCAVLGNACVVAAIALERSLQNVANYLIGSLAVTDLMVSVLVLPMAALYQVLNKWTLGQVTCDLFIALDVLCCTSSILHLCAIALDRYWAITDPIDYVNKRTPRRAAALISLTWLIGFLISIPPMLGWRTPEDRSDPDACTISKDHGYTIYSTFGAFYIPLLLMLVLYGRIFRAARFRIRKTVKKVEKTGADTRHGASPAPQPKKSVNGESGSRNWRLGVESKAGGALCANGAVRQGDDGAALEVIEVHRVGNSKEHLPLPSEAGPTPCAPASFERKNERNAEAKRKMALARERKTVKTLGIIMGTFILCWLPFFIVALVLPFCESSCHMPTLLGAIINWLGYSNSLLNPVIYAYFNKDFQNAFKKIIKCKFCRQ
Details: Compound concentration 10 µM
Description: PDSP Primary Binding target: HTR1A - Compounds are tested at 10 uM concentration, plate are incubated at room temperature in the dark for 90 minutes. Reaction are stopped by vacuum filtration onto 0.3% polyethyleneimine soaked filter mats using Filtermate harvester. Scintilation cocktail is then melted onto microwave-dried filters on a hot plate and the radio activity is counted in Microbia counter.
Give measured inhibition for each item. Keep answers brief.
One number for each entry, in %.

Example compounds with recorded inhibition:
1) CC(C)[C@H](CO)Nc1nc(Nc2cccc(Cl)c2)c2ncn(C(C)C)c2n1; 5.71
2) CC(C)NCC(O)COc1cccc2ccccc12 (stereo not drawn); 77.5
3) COc1cccc(-c2c(C)n(Cc3c(F)cccc3C(F)(F)F)c(=O)n(C[C@H](NCCCC(=O)O)c3ccccc3)c2=O)c1F; -2.18
4) O=c1ccn([C@@H]2O[C@H](COP(=O)(O)OP(=O)(O)O)[C@@H](O)[C@H]2O)c(=O)[nH]1; 5.47

The following compounds each have a reported value; give each one's inhibition.
1. CN(C)C(=O)N[C@H]1CC[C@H](CCN2CCN(c3cccc(Cl)c3Cl)CC2)CC1
2. CN1C2CCC1CC(OC(c1ccc(F)cc1)c1ccc(F)cc1)C2 (stereo not drawn)
3. CC1(C)SSC(C)(C)[C@@H](NC(=O)[C@@H](N)Cc2ccc(O)cc2)C(=O)NCC(=O)N[C@@H](Cc2ccccc2)C(=O)N[C@H]1C(=O)O
4. CC[C@@H]1CN2C(=O)N(C)c3nc(-c4ccccc4)[nH]c3C2=N1
5. CN[C@@H]1CCc2[nH]c3ccc(C(N)=O)cc3c2C1
6. O=C(O)C1CN(Cc2ccc(OCc3ccc(Cl)c(Cl)c3)cc2)C1

1: 102; 2: 21.6; 3: 3.47; 4: 12; 5: 56.4; 6: 13.2

----------
Give measured inhibition for each item. Keep answers brief.
Molecular target: Alpha-2B adrenergic receptor (Homo sapiens) (UniProt P18089)
Sequence (whole entry): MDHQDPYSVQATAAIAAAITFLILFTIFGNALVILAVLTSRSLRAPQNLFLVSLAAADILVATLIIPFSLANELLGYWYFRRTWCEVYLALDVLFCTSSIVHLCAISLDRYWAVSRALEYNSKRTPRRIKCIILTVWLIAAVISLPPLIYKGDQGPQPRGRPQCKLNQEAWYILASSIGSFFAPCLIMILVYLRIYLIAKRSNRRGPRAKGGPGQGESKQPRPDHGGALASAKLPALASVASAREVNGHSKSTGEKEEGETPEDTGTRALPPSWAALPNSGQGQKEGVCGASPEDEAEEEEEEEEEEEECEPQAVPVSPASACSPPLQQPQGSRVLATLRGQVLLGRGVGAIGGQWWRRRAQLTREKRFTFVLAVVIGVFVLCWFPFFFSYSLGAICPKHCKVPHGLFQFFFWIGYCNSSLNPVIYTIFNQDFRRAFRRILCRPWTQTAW
Settings: Compound concentration 10 µM
Description: PDSP Primary Binding target: ADRA2B - Compounds are tested at 10 uM concentration, plate are incubated at room temperature in the dark for 90 minutes. Reaction are stopped by vacuum filtration onto 0.3% polyethyleneimine soaked filter mats using Filtermate harvester. Scintilation cocktail is then melted onto microwave-dried filters on a hot plate and the radio activity is counted in Microbia counter.

1) S=C(NCCCc1c[nH]cn1)NCCCN(Cc1ccc(Cl)c(Cl)c1)c1ccc(Br)cn1; 94.8%
2) O=c1ccn([C@@H]2O[C@H](COP(=O)(O)OP(=O)(O)O)[C@@H](O)[C@H]2O)c(=O)[nH]1; -3.44%
3) CCc1nn(CCCN2CCN(c3cccc(Cl)c3)CC2)c(=O)n1CCOc1ccccc1; 103%
4) Clc1ccc(CCCOCCCN2CCCCC2)cc1; 1.88%
5) CC(C)[C@H](CO)Nc1nc(Nc2cccc(Cl)c2)c2ncn(C(C)C)c2n1; 28.1%

The following compounds each have a reported value; give each one's inhibition.
1. COc1ccnc(N2CCC3(CCCN(Cc4c[nH]c5ccccc45)C3=O)CC2)n1
2. COc1cccc([C@@H](C)NCCCc2ccccc2Cl)c1

1. -7.28%
2. 72.4%
